- assayOverview: Toxicokinetic study, 14-day repeated intraperitoneal administration in Sprague-Dawley rats
- Format: in vivo
- conditionLabel: male, Sprague-Dawley, rat, in vivo, ip, 5 mg/kg/day, AUClast
parameter: AUC(0-t) (ng·h/mL)
Unit ng·h/mL implied. Number only.

stdin: # get_value(readout='AUC(0-t)', item= `CO[C@@H]1C[C@@H](C[C@H]2CC[C@H](C)[C@H]([C@@H](C)C(=O)O)O2)O[C@]2(O[C@](C)([C@H]3CC[C@@](C)([C@@H]4O[C@@H]([C@H]5O[C@@](O)(CO)[C@H](C)C[C@@H]5C)C[C@@H]4C)O3)C[C@H]2C)[C@@H]1C` )
stdout: 8190

====

- assayOverview: Toxicokinetic study, 14-day repeated intraperitoneal administration in Sprague-Dawley rats
- Assay type: in vivo
- conditionLabel: female, Sprague-Dawley, rat, in vivo, ip, 5 mg/kg/day, Cmax
parameter: Cmax (ng/mL)
Kindly answer with a numeric value in ng/mL, unit omitted.

stdin: What does the data say about its Cmax? Entry: `CO[C@@H]1C[C@@H](C[C@H]2CC[C@H](C)[C@H]([C@@H](C)C(=O)O)O2)O[C@]2(O[C@](C)([C@H]3CC[C@@](C)([C@@H]4O[C@@H]([C@H]5O[C@@](O)(CO)[C@H](C)C[C@@H]5C)C[C@@H]4C)O3)C[C@H]2C)[C@@H]1C`
stdout: 2440

====

- assayOverview: Toxicokinetic study, 14-day repeated intraperitoneal administration in Sprague-Dawley rats
- Assay type: in vivo
- conditionLabel: male, Sprague-Dawley, rat, in vivo, ip, 0.5 mg/kg/day, Tmax
parameter: Tmax at 14 day (min)
Note: unit min is implicit; provide only the numeric part.

stdin: # get_value(readout='Tmax at 14 day', item= `CO[C@@H]1C[C@@H](C[C@H]2CC[C@H](C)[C@H]([C@@H](C)C(=O)O)O2)O[C@]2(O[C@](C)([C@H]3CC[C@@](C)([C@@H]4O[C@@H]([C@H]5O[C@@](O)(CO)[C@H](C)C[C@@H]5C)C[C@@H]4C)O3)C[C@H]2C)[C@@H]1C` )
stdout: 16.8

====

- assayOverview: in vivo
- Set-up: species or system Sprague Dawley rats
- conditionLabel: male, Sprague Dawley, rat, iv, 2 mg/kg
- Protocol: Oral solution bioavailability was 2%. Plasma Pharmacokinetics study of Nigericin was carried out using three different routes of administration i.e. Intravenous (IV), Oral (O) and Intraperitoneal (IP). Based on above study, the intraperitoneal route of administration was selected to study the toxicokinetic profiling of Nigericin.
parameter: half-life (h)
Field format: number, assumed h, no unit text.

stdin: Given the entry `CO[C@@H]1C[C@@H](C[C@H]2CC[C@H](C)[C@H]([C@@H](C)C(=O)O)O2)O[C@]2(O[C@](C)([C@H]3CC[C@@](C)([C@@H]4O[C@@H]([C@H]5O[C@@](O)(CO)[C@H](C)C[C@@H]5C)C[C@@H]4C)O3)C[C@H]2C)[C@@H]1C` , report its measured half-life.
stdout: 3.53

====

- assayOverview: in vivo
- Set-up: species or system Sprague Dawley rats
- conditionLabel: male, Sprague Dawley, rat, po, 10 mg/kg
parameter: Tmax (min)
API: value field is a number in min; no unit string.

stdin: Please look up its Tmax: CO[C@@H]1C[C@@H](C[C@H]2CC[C@H](C)[C@H]([C@@H](C)C(=O)O)O2)O[C@]2(O[C@](C)([C@H]3CC[C@@](C)([C@@H]4O[C@@H]([C@H]5O[C@@](O)(CO)[C@H](C)C[C@@H]5C)C[C@@H]4C)O3)C[C@H]2C)[C@@H]1C [nigericin]
stdout: 37.8
